# tgt: Glutamate receptor ionotropic, AMPA (Rattus norvegicus, UniProt P19490+P19491+P19492+P19493)
# method: Inhibition of kainate induced [45Ca]2+ uptake in rat cerebellar granule cells expressing AMPA receptor
# Assay type: functional
propertyName: IC50 (µM)

[I] C[C@@H]1C(=O)NN=C(c2ccc(N)cc2)c2cc3c(cc21)OCO3
[II] CC1C(=O)NN=C(c2ccc(N)cc2)c2cc3c(cc21)OCO3 (racemic)
Quick check, higher IC50 between I and II ? Response format: the label of the selected entry.
II
(II: 12 µM, I: 6 µM)
